Exercise: state measured pKi for each of the compounds provided.
- assay.notes: Antagonist activity at muscarinic receptor
- Format: functional
Respond using a number only.

Data request: Quick check: pKi of CCCCN1C2CC[C@@H]1C[C@H](OC(c1ccc(F)cc1)c1ccc(F)cc1)C2 (single isomer, unassigned) ?
Data returned: 2.6

Data request: Please give the measured pKi for this compound: C[S+]([O-])COC(=O)C(O[C@@H]1CC2CC[C@H](C1)[N+]2(C)C)c1ccccc1 (single isomer, unassigned)
Data returned: 7.25

Data request: Suppose we examine the compound `CN1[C@@H]2CC[C@H]1C[C@@H](OC(c1ccccc1)c1ccccc1)C2` ; what pKi value has been reported?
Data returned: 0.33

Data request: Which pKi is reported for this compound? C[N+]1(C)[C@@H]2CC[C@H]1C[C@@H](OC(=O)CCC(C(=O)O[C@@H]1C[C@H]3CC[C@@H](C1)[N+]3(C)C)c1ccccc1)C2 (some centres undefined)
Data returned: 6.5

Data request: Look at this compound and give its reported pKi. CN1[C@@H]2C[C@@H](OC(=O)C(c3ccccc3)C3CCCC3)C[C@H]1[C@@H]1O[C@@H]12 (some centres undefined)
Data returned: 7.14

Data request: Item `COC(=O)[C@H]1[C@@H](OC(=O)c2ccccc2)C[C@@H]2CC[C@H]1N2C` has what recorded pKi?
Data returned: 4.79

Data request: Can you share its pKi? I mean this compound: C=CCN1C2CC[C@@H]1C[C@H](OC(c1ccc(F)cc1)c1ccc(F)cc1)C2 (single isomer, unassigned)
Data returned: 2.25

Data request: Data request, read-out pKi, for CN1C2CC[C@@H]1C[C@H](OC(c1ccc(F)cc1)c1ccc(F)cc1)C2 (single isomer, unassigned)
Data returned: 1.06

Data request: Look up pKi: COC(=O)C(C(=O)O[C@@H]1C[C@@H]2[C@H]3O[C@H]3[C@H](C1)[N+]2(C)C)(c1ccccc1)C1CCCC1 (some centres undefined)
Data returned: 7.28
